Values were extracted from patent US12275729B2.

target: IDO1 (Homo sapiens); experiment: IDO1 Cellular Assay in HeLa Cells Stimulated with IFNγ; assay type: cell-based; details: read-out: Hela IC50
Where a name gives a salt, the structure may show the parent alone.
Reported log10 of IC50 values are given for each entry in this list.
METRIC: log10 of IC50 (log10 of the value in nM)

COMPOUND: O=C(OC1CC1)N1CCCc2nc(C3(C(=O)Nc4ccc(Cl)nc4)CCC3)ccc21
ASSAYED_TARGET: IDO1 (Homo sapiens)
log10 of IC50: -0.04

COMPOUND: CCC(COC)OC(=O)N1CCCc2nc(C(C)NC(=O)c3ccc(F)cc3)ccc21 (stereo not shown)
ASSAYED_TARGET: IDO1 (Homo sapiens)
log10 of IC50: 0.31

COMPOUND: CC(NC(=O)c1ccc(F)cc1)c1ccc2c(n1)CCCN2c1cc(C#N)ccn1 (stereo not shown)
ASSAYED_TARGET: IDO1 (Homo sapiens)
log10 of IC50: 2.55

COMPOUND: CC(NC(=O)c1ccc(F)cc1)c1ccc2c(n1)CCCN2c1ccc(F)cn1 (stereo not shown)
ASSAYED_TARGET: IDO1 (Homo sapiens)
log10 of IC50: 2.00

COMPOUND: Cc1nc(N2CCCc3nc(C(C)NC(=O)c4ccc(Cl)cc4)ccc32)c2ccccc2n1 (stereo not shown) [Example 357, trifluoroacetate]
ASSAYED_TARGET: IDO1 (Homo sapiens)
log10 of IC50: 1.45

COMPOUND: COC[C@H](C)OC(=O)N1CCCc2nc(C(C)NC(=O)c3ccc(Cl)cc3)ccc21 (stereo partly shown)
ASSAYED_TARGET: IDO1 (Homo sapiens)
log10 of IC50: 0.04

COMPOUND: COc1ccc(C(=O)NC(C)c2ccc3c(n2)CCCN3C(=O)OC2CC2)cc1 (stereo not shown)
ASSAYED_TARGET: IDO1 (Homo sapiens)
log10 of IC50: 2.21

COMPOUND: Cc1nccc(N2CCCc3nc(C(C)C(=O)Nc4ccc(Cl)cc4)ccc32)n1 (stereo not shown) [Example 362]
ASSAYED_TARGET: IDO1 (Homo sapiens)
log10 of IC50: -0.16

COMPOUND: CC(NC(=O)c1ccc(F)cc1)c1ccc2c(n1)CCCN2C(=O)OCCc1ccc(Cl)c(Cl)c1 (stereo not shown)
ASSAYED_TARGET: IDO1 (Homo sapiens)
log10 of IC50: 1.39

COMPOUND: CC(NC(=O)c1ccc(F)cc1)c1ccc2c(n1)CCCN2c1cccc(C(F)(F)F)n1 (stereo not shown)
ASSAYED_TARGET: IDO1 (Homo sapiens)
log10 of IC50: 1.02

COMPOUND: O=C(N[C@@H](c1ccc2c(n1)CCCN2C(=O)C1CC1)C(F)(F)F)c1ccc(F)cc1
ASSAYED_TARGET: IDO1 (Homo sapiens)
log10 of IC50: 2.37

COMPOUND: CC(C(=O)Nc1ccc(F)cc1)c1ccc2c(n1)CCCN2c1ccnc(C(F)(F)F)n1 (stereo not shown)
ASSAYED_TARGET: IDO1 (Homo sapiens)
log10 of IC50: 0.70

COMPOUND: Cc1nccc(N2CCCc3nc(C4(C(=O)Nc5ccc(F)cc5)CC(OCc5ccccc5)C4)ccc32)n1 (stereo not shown) [Example 423, 2,2,2-trifluoroacetate]
ASSAYED_TARGET: IDO1 (Homo sapiens)
log10 of IC50: 0.84

COMPOUND: CC(NC(=O)c1ccc(Cl)cc1)c1ccc2c(n1)CCCN2c1cccc(C2CC2)n1 (stereo not shown)
ASSAYED_TARGET: IDO1 (Homo sapiens)
log10 of IC50: 0.53

COMPOUND: Cc1nccc(N2CCCc3nc(C4(C(=O)Nc5ccc(F)cc5)CC4(F)F)ccc32)n1 (single isomer, unassigned) [Example 421]
ASSAYED_TARGET: IDO1 (Homo sapiens)
log10 of IC50: 0.42

COMPOUND: O=C(OC1CC1)N1CCCc2nc(C3(C(=O)Nc4ccc(Cl)cc4)CCC3)ccc21
ASSAYED_TARGET: IDO1 (Homo sapiens)
log10 of IC50: -0.14

###

Biological target: IDO1 (Homo sapiens)
Test: IDO1 Human Whole Blood Assay
Type: cell-based
Design: Human whole blood was drawn in sodium heparin coated tubes from healthy internal donors; from tissue; host or cells: human whole blood from healthy donors, stimulated with LPS and IFNγ
Conditions: LPS and IFNγ stimulated
Experimental: IDO1 Human Whole Blood Assay Compounds to be tested were serially diluted in ten 3-fold steps in DMSO starting from 10 mM. […] LPS and IFNγ was prepared in RPMI to a 10× of final conc. (1000 ng/mL), final concentration is 100 ng/mL. Human whole blood was drawn in sodium heparin coated tubes from healthy internal donors. 240 μL of blood was transferred to each of the wells of a v-bottom 96 well plate. 30 μL of compound was transferred from intermediate dilution plate, and incubated for 15 min. […]
Where a name gives a salt, the structure may show the parent alone.
Entries and their measured log10(IC50) follow.
METRIC: log10(IC50) (log10 of the value in nM)

COMPOUND: Cc1nccc(N2CCCc3nc(C4(C(=O)Nc5ccc(F)cc5)CC(O)C4)ccc32)n1 (stereo not shown) [Example 426, 2,2,2-trifluoroacetate]
log10(IC50): 3.00

COMPOUND: C[C@@H](NC(=O)c1ccc(F)cc1)c1ccc2c(n1)CCCN2C(=O)[C@H]1CCCO1
log10(IC50): 2.10

COMPOUND: O=C(OC1CC1)N1CCCc2nc(C3(C(=O)Nc4ccc(Cl)nc4)CC4(CC4)C3)ccc21 [Example 418, trifluoroacetate]
log10(IC50): 2.38

COMPOUND: Cc1nccc(N2CCCCc3nc(C4(NC(=O)c5ccc(F)cc5)CC4)ccc32)n1
log10(IC50): 0.60

COMPOUND: O=C(C1COC1)N1CCCc2cc(C3(C(=O)Nc4ccc(F)cc4)CCC3)ccc21
log10(IC50): 2.68

COMPOUND: Cc1nccc(N2CCCc3nc(C4(C(=O)Nc5ccc(Cl)cc5)COC4)ccc32)n1
log10(IC50): 0.85

COMPOUND: COC(=O)N1CCCc2nc(C(C)NC(=O)c3ccc(Cl)cc3)ccc21 (stereo not shown)
log10(IC50): 2.59

COMPOUND: Cc1nccc(N2CC(F)Cc3cc(C4(NC(=O)c5ccc(Cl)cc5)CC4)ccc32)n1 (racemic) [Example 437, 2,2,2-trifluoroacetate salt]
log10(IC50): 1.20

COMPOUND: Cc1cccc(N2CCCc3nc(C4(NC(=O)c5ccc(F)cc5)CC4)ccc32)n1
log10(IC50): 3.41

COMPOUND: Cc1nccc(N2CCCc3nc(C(C)NC(=O)c4ccc(Cl)cc4)ccc32)n1 (stereo not shown)
log10(IC50): 1.51

COMPOUND: CC(NC(=O)c1ccc(F)cc1)c1ccc2c(c1)CCCN2C(CO)c1cccc(Cl)c1 (single isomer, unassigned) [Example 92]
log10(IC50): 2.58

COMPOUND: CC(NC(=O)c1ccc(F)cc1)c1ccc2c(n1)CCCN2Cc1cccc(Cl)c1 (stereo not shown)
log10(IC50): 2.39

COMPOUND: CCn1ccc(N2CCCc3cc(C4(C(=O)Nc5ccc(F)cn5)CCC4)ccc32)n1
log10(IC50): 2.75

COMPOUND: Cc1nccc(N2CCCc3nc(C(C)C(=O)Nc4ccc(Cl)cc4)ccc32)n1 (stereo not shown) [Example 363]
log10(IC50): 2.25

COMPOUND: CC(NC(=O)c1ccc(F)cc1)c1ccc2c(n1)CCCN2C(=O)c1ccn(C)n1 (stereo not shown)
log10(IC50): 1.83

COMPOUND: Cc1nc(N2CCCc3nc(C(C)NC(=O)c4ccc(Cl)cc4)ccc32)c2ccccc2n1 (stereo not shown) [Example 357, trifluoroacetate]
log10(IC50): 2.64

###

target: IDO1 (Homo sapiens, UniProt P14902); assay: IDO1 Human Whole Blood Assay; format: cell-based; set-up: Human whole blood was drawn in sodium heparin coated tubes from healthy internal donors; from tissue; host or cells: human whole blood from healthy donors, stimulated with LPS and IFNγ; conditions: LPS and IFNγ stimulated
Sequence (P14902 whole entry): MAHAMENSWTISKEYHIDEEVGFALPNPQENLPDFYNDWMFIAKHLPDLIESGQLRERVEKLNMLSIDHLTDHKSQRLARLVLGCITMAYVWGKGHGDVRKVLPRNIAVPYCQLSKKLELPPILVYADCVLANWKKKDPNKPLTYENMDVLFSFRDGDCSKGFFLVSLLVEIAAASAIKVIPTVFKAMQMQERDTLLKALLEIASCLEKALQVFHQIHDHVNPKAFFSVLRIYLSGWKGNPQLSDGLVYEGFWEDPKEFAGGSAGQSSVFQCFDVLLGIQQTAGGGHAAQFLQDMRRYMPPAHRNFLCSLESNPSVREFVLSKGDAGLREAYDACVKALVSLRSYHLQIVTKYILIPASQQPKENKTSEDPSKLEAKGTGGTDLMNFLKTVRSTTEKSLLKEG
pIC50: −log10 of the molar value.
Each entry below lists one item and its recorded pIC50 value.

COMPOUND: O=C(Nc1ccc(F)cc1)C1(c2ccc3c(n2)CCCN3c2ccnc(C3CC3)n2)CCC1
ASSAYED_TARGET: IDO1 (Homo sapiens, UniProt P14902)
pIC50: 8.40
//
COMPOUND: Cc1nccc(N2CCCc3nc(C4(NC(=O)c5ccc(Cl)cc5)CC4)ccc32)n1
ASSAYED_TARGET: IDO1 (Homo sapiens, UniProt P14902)
pIC50: 7.20
//
COMPOUND: COC[C@@H](C)OC(=O)N1CCCc2nc(C(C)NC(=O)c3ccc(F)cc3)ccc21 (some centres unmarked)
ASSAYED_TARGET: IDO1 (Homo sapiens, UniProt P14902)
pIC50: 7.74
//
COMPOUND: C[C@@H](C(=O)Nc1ccc(F)cc1)c1ccc2c(c1)CCCN2C(=O)c1cccc(Cl)c1 (single isomer, unassigned)
ASSAYED_TARGET: IDO1 (Homo sapiens, UniProt P14902)
pIC50: 7.35
//
COMPOUND: Cc1nccc(N2CCCc3nc(C4(NC(=O)c5ccc(F)cc5)CCC4)ccc32)n1
ASSAYED_TARGET: IDO1 (Homo sapiens, UniProt P14902)
pIC50: 8.52
//
COMPOUND: CC(NC(=O)c1ccc(F)cc1)c1ccc2c(n1)CCCN2C(=O)c1cc(Cl)ccn1 (centres unmarked)
ASSAYED_TARGET: IDO1 (Homo sapiens, UniProt P14902)
pIC50: 7.15
//
COMPOUND: CC(C)CC(=O)N1CCCc2cc([C@@H](C)NC(=O)c3ccc(Cl)cc3)ccc21 (racemic)
ASSAYED_TARGET: IDO1 (Homo sapiens, UniProt P14902)
pIC50: 7.48
//
COMPOUND: Cc1ccc(C(=O)NC2(c3ccc4c(n3)CCCN4c3ccnc(C)n3)CC2)cc1
ASSAYED_TARGET: IDO1 (Homo sapiens, UniProt P14902)
pIC50: 6.97
